Reported growth AUC is given for each of the following compounds.
System: Clostridium difficile
Experiment: growth AUC relative to DMSO control (median of replicates) (fraction); higher = more growth (less inhibition), active = hit call of the paper
Conditions: 20 µM; 24 h
ASSAY ENDPOINT: growth AUC

INSERT INTO assay_data (compound, recorded_value) VALUES
  ('O.O=C(Nc1ccc([N+](=O)[O-])cc1Cl)c1cc(Cl)ccc1O', '0.328 (active)'),
  ('CCOc1ccc(NC(=O)OC(C)C)cc1OCC', '0.971 (inactive)'),
  ('CNc1nc(NC(C)C)nc(SC)n1', '1.01 (inactive)'),
  ('CN(C)C=O', '0.999 (inactive)'),
  ('CCc1cccc(C)c1N(C(=O)C(=O)O)[C@@H](C)C(=O)O', '0.903 (inactive)'),
  ('CC(C)c1cccc2c(=O)c3ccccc3sc12', '0.895 (inactive)'),
  ('C=O', '0.968 (inactive)'),
  ('Cc1cc(C)cc(O)c1', '1.03 (inactive)'),
  ('COc1cc(OC)nc(NC(=O)NS(=O)(=O)N(C)S(C)(=O)=O)n1', '0.907 (inactive)'),
  ('COc1nc(NC(=O)NS(=O)(=O)c2ccccc2C(F)(F)F)nc(C(F)(F)F)n1', '0.987 (inactive)'),
  ('c1ccc2cc3c(ccc4ccccc43)cc2c1', '0.992 (inactive)'),
  ('COC1CCC2(CC1)NC(=O)C(c1cc(C)ccc1C)=C2OC1OC(CO)C(O)C(O)C1O (configuration not stated)', '1.02 (inactive)');

* * *

Reported growth AUC is given for each of the following compounds.
Test system: Fusobacterium nucleatum subsp. animalis
Experiment: growth AUC relative to DMSO control (median of replicates) (fraction); higher = more growth (less inhibition), active = hit call of the paper
Conditions: 20 µM; 24 h
ASSAY ENDPOINT: growth AUC

INSERT INTO measurements (compound, recorded_value) VALUES
  ('Nc1cc(Cl)nc(C(=O)O)c1Cl', 1.03),
  ('CCNc1nc(N)nc(Cl)n1', 1.04),
  ('CC(C)OC(=O)[C@@H](C)N(C(=O)c1ccccc1)c1ccc(F)c(Cl)c1', 1.1),
  ('COc1nc(OC)nc(C(=O)c2cccc(F)c2N(C)S(=O)(=O)C(F)F)n1', 1.05),
  ('c1ccc2cc3ccccc3cc2c1', 1.01),
  ('COC(=O)c1c(Cl)nn(C)c1S(=O)(=O)NC(=O)Nc1nc(OC)cc(OC)n1', 1.09),
  ('NC(=O)c1nn(-c2c(Cl)cc(C(F)(F)F)cc2Cl)c(N)c1S(=O)C(F)(F)F (configuration not stated)', 0.945),
  ('C=CCc1ccc(O)c(OC)c1', 1),
  ('CCc1cccc(C)c1N(C(=O)C(=O)O)C(C)COC (configuration not stated)', 1.01),
  ('CCOc1ccc2c(c1)C(C)=CC(C)(C)N2', 1.03),
  ('Cc1ccc(C(C)NC(=O)[C@@H](NC(=O)OC(C)C)C(C)C)cc1 (some centres not stated)', 1.08),
  ('CCCOC(=O)NCCCN(C)C', 0.984);

* * *

Tested on: Lactobacillus gasseri
Assay: growth AUC relative to DMSO control (median of replicates) (fraction); higher = more growth (less inhibition), active = hit call of the paper
Conditions: 20 µM; 24 h
ASSAY ENDPOINT: growth AUC

INSERT INTO measurements (compound, measured_on, assay_endpoint, recorded_value) VALUES
  ('CN(C)C(=O)c1cccnc1S(N)(=O)=O', 'Lactobacillus gasseri', 'growth AUC', 1.06),
  ('CCOC(=O)Nc1cccc(OC(=O)Nc2cccc(C)c2)c1', 'Lactobacillus gasseri', 'growth AUC', 0.896),
  ('CC(C)(C)Nc1nc(N)nc(Cl)n1', 'Lactobacillus gasseri', 'growth AUC', 0.974),
  ('COc1c(Cl)ccc(Cl)c1C(=O)O', 'Lactobacillus gasseri', 'growth AUC', 1.26),
  ('O=C(O)CNC(=O)c1cnccc1C(F)(F)F', 'Lactobacillus gasseri', 'growth AUC', 0.903),
  ('CCCCCC(C)OC(=O)COc1ccc(Cl)c2cccnc12 (stereo not given)', 'Lactobacillus gasseri', 'growth AUC', 0.865),
  ('CO/N=C(/C(=O)O)c1ccccc1CO/N=C(\C)c1cccc(C(F)(F)F)c1', 'Lactobacillus gasseri', 'growth AUC', 0.948),
  ('COc1cc(OC)nc(Sc2cccc3c2C(=O)OC3C)n1 (stereo not given)', 'Lactobacillus gasseri', 'growth AUC', 1.06),
  ('Cc1cccc(C)c1N(CC(=O)O)C(=O)CS(=O)(=O)[O-].[Na+]', 'Lactobacillus gasseri', 'growth AUC', 0.987),
  ('CC(C)CNC(=O)N1CCNC1=O', 'Lactobacillus gasseri', 'growth AUC', 1.05),
  ('Cc1cccc(C)c1N(C(=O)CCl)C1CCOC1=O (stereo not given)', 'Lactobacillus gasseri', 'growth AUC', 0.953),
  ('c1ccc(CNc2ncnc3nc[nH]c23)cc1', 'Lactobacillus gasseri', 'growth AUC', 0.956),
  ('CC(C)N(C(=O)CS(=O)CC(=O)O)c1ccc(F)cc1 (stereo not given)', 'Lactobacillus gasseri', 'growth AUC', 1.01),
  ('NC(Cn1cncn1)C(=O)O (stereo not given)', 'Lactobacillus gasseri', 'growth AUC', 0.999),
  ('Cc1cc(C)c(C2=C(O)C3(CCCC3)OC2=O)c(C)c1', 'Lactobacillus gasseri', 'growth AUC', 1.09),
  ('CC(C)(SC(=O)N1CCCCC1)c1ccccc1', 'Lactobacillus gasseri', 'growth AUC', 1.01),
  ('CC(C)N(C)S(=O)(=O)NC(=O)c1cc(-n2c(=O)cc(C(F)(F)F)[nH]c2=O)c(F)cc1Cl', 'Lactobacillus gasseri', 'growth AUC', 1.03),
  ('c1cc2ccc3ccc4ccc5cccc6c(c1)c2c3c4c56', 'Lactobacillus gasseri', 'growth AUC', 0.994),
  ('C/C=C/C=C/CCCCCCCO', 'Lactobacillus gasseri', 'growth AUC', 0.96),
  ('Nc1ccc(S(=O)(=O)Nc2cnc3ccccc3n2)cc1', 'Lactobacillus gasseri', 'growth AUC', 1.03),
  ('CCCN(CCC)C(=O)SCC', 'Lactobacillus gasseri', 'growth AUC', 1.03),
  ('CCCCCCCCc1c(CC)nc2ncnn2c1N', 'Lactobacillus gasseri', 'growth AUC', 0.904),
  ('N#CC(=NOCC1OCCO1)c1ccccc1', 'Lactobacillus gasseri', 'growth AUC', 0.962),
  ('CC(C)(NC(=O)NCc1ccccc1Cl)c1ccccc1', 'Lactobacillus gasseri', 'growth AUC', 0.978),
  ('COC1CCC2(CC1)NC(=O)C(c1cc(C)ccc1C)=C2OC1OC(CO)C(O)C(O)C1O (stereo not given)', 'Lactobacillus gasseri', 'growth AUC', 0.948),
  ('c1ccc2[nH]c(-c3cscn3)nc2c1', 'Lactobacillus gasseri', 'growth AUC', 1),
  ('CC(C)c1cc(Oc2ccccc2)cc(C(C)C)c1NC(=S)NC(C)(C)C', 'Lactobacillus gasseri', 'growth AUC', 0.978),
  ('Cc1cc(C2CC2)nc(Nc2ccc(O)cc2)n1', 'Lactobacillus gasseri', 'growth AUC', 1.19),
  ('NC1=C(Cl)C(=O)c2ccccc2C1=O', 'Lactobacillus gasseri', 'growth AUC', 0.863),
  ('COC(=O)C(C)Oc1ccc(Oc2ccc(C(F)(F)F)cn2)cc1 (stereo not given)', 'Lactobacillus gasseri', 'growth AUC', 0.958),
  ('c1ccc(Sc2ccccc2)cc1', 'Lactobacillus gasseri', 'growth AUC', 1.1),
  ('COc1nc(N)nc(C(F)(F)F)n1', 'Lactobacillus gasseri', 'growth AUC', 1.08),
  ('O.O=C(Nc1ccc([N+](=O)[O-])cc1Cl)c1cc(Cl)ccc1O', 'Lactobacillus gasseri', 'growth AUC', 0.15),
  ('CCCCCCC(C)OC(=O)COc1nc(F)c(Cl)c(N)c1Cl (stereo not given)', 'Lactobacillus gasseri', 'growth AUC', 0.967),
  ('CSc1nnc(C(C)(C)C)c(=O)n1/N=C/C(C)C', 'Lactobacillus gasseri', 'growth AUC', 1.08),
  ('CCS(=O)(=O)c1nnc(N(C)C(=O)NC)s1', 'Lactobacillus gasseri', 'growth AUC', 1.04),
  ('COCCCNc1nc(NC(C)C)nc(SC)n1', 'Lactobacillus gasseri', 'growth AUC', 1.04),
  ('CCN(CC)c1nc(C)cc(=O)[nH]1', 'Lactobacillus gasseri', 'growth AUC', 0.998),
  ('O=C1NC(=O)c2ccccc21', 'Lactobacillus gasseri', 'growth AUC', 1.06),
  ('Cl.NCCO/C=C/[C@H](N)C(=O)O', 'Lactobacillus gasseri', 'growth AUC', 0.853),
  ('CC(C)c1ccccc1', 'Lactobacillus gasseri', 'growth AUC', 1.17),
  ('Cc1cc(C)cc(O)c1', 'Lactobacillus gasseri', 'growth AUC', 1.01),
  ('CCC(C)Nc1nc(N)nc(Cl)n1 (stereo not given)', 'Lactobacillus gasseri', 'growth AUC', 0.996),
  ('COc1ccc(Cl)c(Cl)c1Cl', 'Lactobacillus gasseri', 'growth AUC', 1.01),
  ('COc1cc(OC)nc(NC(=O)NS(=O)(=O)c2c(-c3nnn(C)n3)cnn2C)n1', 'Lactobacillus gasseri', 'growth AUC', 0.873),
  ('CNC(=O)/C(=N/OC)c1ccccc1CO/N=C(C)/C(=N/OC)C(/C)=N/OC', 'Lactobacillus gasseri', 'growth AUC', 1.16),
  ('COC(=O)C(C)Oc1ccc(Cl)cc1Cl (stereo not given)', 'Lactobacillus gasseri', 'growth AUC', 0.991),
  ('O=[N+]([O-])c1ccc(O)cc1', 'Lactobacillus gasseri', 'growth AUC', 0.985),
  ('CCc1cccc(C)c1NC(=O)C(=O)O', 'Lactobacillus gasseri', 'growth AUC', 0.916),
  ('CSc1nc(NC2CC2)nc(NC(C)(C)C)n1', 'Lactobacillus gasseri', 'growth AUC', 1.05);
